- targetOrTestSystem: Phosphatidylinositol 3-kinase regulatory subunit alpha/4,5-bisphosphate 3-kinase catalytic subunit alpha isoform (Homo sapiens, UniProt P42336)
- Sequence (P27986 whole entry, canonical isoform): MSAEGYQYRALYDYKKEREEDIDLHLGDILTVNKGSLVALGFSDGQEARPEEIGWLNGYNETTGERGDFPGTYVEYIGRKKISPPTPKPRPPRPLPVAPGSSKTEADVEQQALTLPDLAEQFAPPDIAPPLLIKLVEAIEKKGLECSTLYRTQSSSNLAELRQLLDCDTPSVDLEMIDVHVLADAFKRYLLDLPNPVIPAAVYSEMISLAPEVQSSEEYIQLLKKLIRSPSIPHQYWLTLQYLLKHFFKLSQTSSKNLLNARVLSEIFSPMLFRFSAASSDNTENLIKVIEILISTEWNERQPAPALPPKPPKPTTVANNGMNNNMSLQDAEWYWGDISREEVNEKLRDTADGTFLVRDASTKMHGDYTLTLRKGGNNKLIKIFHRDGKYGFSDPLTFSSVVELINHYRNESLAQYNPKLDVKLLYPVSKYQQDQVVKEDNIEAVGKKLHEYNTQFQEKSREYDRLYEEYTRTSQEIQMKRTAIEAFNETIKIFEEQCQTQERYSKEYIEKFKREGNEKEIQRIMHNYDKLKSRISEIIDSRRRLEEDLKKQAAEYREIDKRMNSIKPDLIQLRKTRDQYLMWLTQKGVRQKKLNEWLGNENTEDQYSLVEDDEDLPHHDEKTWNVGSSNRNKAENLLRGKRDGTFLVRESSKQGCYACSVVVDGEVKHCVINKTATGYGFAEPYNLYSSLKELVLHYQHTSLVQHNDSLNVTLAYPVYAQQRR
- Sequence (P42336 whole entry, canonical isoform): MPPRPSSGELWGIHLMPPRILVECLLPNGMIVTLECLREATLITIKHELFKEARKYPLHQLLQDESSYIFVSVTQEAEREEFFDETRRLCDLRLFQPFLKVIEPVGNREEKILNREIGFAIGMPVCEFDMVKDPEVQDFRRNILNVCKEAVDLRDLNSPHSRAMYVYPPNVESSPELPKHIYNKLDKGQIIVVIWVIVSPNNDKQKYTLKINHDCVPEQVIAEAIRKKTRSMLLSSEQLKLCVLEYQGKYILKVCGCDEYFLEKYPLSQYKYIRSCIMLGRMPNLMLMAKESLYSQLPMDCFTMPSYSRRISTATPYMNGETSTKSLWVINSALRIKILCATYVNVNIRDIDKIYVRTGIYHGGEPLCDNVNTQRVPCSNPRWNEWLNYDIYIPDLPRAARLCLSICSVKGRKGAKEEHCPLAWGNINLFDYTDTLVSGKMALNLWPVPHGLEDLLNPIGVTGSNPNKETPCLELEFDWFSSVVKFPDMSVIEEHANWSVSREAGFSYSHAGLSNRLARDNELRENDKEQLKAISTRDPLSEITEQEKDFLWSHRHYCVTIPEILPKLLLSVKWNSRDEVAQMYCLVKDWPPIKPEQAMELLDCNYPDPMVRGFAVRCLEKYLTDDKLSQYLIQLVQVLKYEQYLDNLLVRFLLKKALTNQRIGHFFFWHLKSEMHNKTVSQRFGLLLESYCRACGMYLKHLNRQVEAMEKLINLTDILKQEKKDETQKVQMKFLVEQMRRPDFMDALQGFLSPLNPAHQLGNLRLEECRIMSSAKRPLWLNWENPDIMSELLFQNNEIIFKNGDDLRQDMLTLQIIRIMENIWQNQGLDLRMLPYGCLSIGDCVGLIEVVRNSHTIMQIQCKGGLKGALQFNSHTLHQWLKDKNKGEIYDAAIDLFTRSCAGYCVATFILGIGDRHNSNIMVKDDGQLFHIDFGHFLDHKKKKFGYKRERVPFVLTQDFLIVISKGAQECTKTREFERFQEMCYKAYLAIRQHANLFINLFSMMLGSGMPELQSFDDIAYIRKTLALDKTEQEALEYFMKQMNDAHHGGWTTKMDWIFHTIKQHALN
- protocolDetails: PI3K Inhibition Assay
measuredAttribute: IC50 (nM)
Answers are plain numbers, in nM.

Guide cases for IC50, answers given:
COC[C@H]1OC(=O)C(=CN2CCC(C(=O)OC)CC2)C2C(=O)C(=O)C3=C([C@H](OC(C)=O)C[C@@]4(C)C3CC[C@@H]4O)[C@]21C (stereo partly specified): 31
COC[C@H]1OC(=O)C(=CN2CCCCC2)C2C(=O)C(=O)C3=C([C@H](OC(C)=O)C[C@@]4(C)C3CC[C@@H]4O)[C@]21C (stereo partly specified): 104
CCN(CC)CCN(C)C=C1C(=O)O[C@H](COC)[C@]2(C)C3=C(C(=O)C(=O)C12)C1CC[C@H](O)[C@@]1(C)C[C@H]3OC(C)=O (stereo partly specified): 50
CCN(C=C1C(=O)O[C@H](COC)[C@]2(C)C3=C(C(=O)C(=O)C12)C1CC[C@H](O)[C@@]1(C)C[C@H]3OC(C)=O)CCCN(C)C (stereo partly specified): 12
COC[C@H]1OC(=O)C(=CN(C)CC(O)CO)C2C(=O)C(=O)C3=C([C@H](OC(C)=O)C[C@@]4(C)C3CC[C@@H]4O)[C@]21C (stereo partly specified): 199

Let us examine a further case.
## Task Any idea what IC50 was measured for COC[C@H]1OC(=O)C(=CN2CCC(=O)CC2)C2C(=O)C(=O)C3=C([C@H](OC(C)=O)C[C@@]4(C)C3CC[C@@H]4O)[C@]21C (stereo partly specified) ?
## Result 60
